Entry source: patent US20210206841A1

// reported koff for each item listed
- tested.on: T1, tail-chimeric peptide IhfA3-IhfB2NTHI (nontypeable Haemophilus influenzae …)
- T1 construct: also called IHF(NTHI) tail chimeric peptide; IHFNTHI tail chimeric peptide
- T1 peptide: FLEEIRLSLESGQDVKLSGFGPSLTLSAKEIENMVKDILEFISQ
- experiment.summary: SPR Biacore 3000, HuMab immobilized, peptide as analyte

binder	units.label	koff
humanized anti-tail monoclonal antibody, heavy chain SEQ ID NO: 6 and light chain SEQ ID NO: 11 (antibody, V domains shown, also called H10215 (11E7.C7 Humanized HC3) + L10214 (11E7.C7 Humanized LC2)) VH: EVQLVESGGGLVQPGRSLRLSCTASGFTFSRYGMSWVRQAPGKGLEWVATISSGGSYTYYTDSVKGRFTISRDNAKNILYLQMNSLKTEDTAVYYCERHGGDGYWYFDVWGQGTMVTVSS VL: DIQMTQSPSSLSASVGDRVTITCRASQDISNYLNWYQQKPGKAVKLLIYYTSRLHSGVPSRFSGSGSGTDYTLTISSLQPEDFATYYCQQGNPLRTFGGGTKVEIKR	s⁻¹	0.0013
humanized anti-tail monoclonal antibody, heavy chain SEQ ID NO: 4 and light chain SEQ ID NO: 11 (antibody, V domains shown, also called H10213 (11E7.C7 Humanized HC1) + L10214 (11E7.C7 Humanized LC2)) VH: EVQLVESGGGLVKPGGSLRLSCAASGFTFSRYGMSWVRQAPGKGLEWVATISSGGSYTYYTDSVKGRFTISRDNAKNSLYLQMNSLRAEDTAVYYCERHGGDGYWYFDVWGQGTMVTVSS VL: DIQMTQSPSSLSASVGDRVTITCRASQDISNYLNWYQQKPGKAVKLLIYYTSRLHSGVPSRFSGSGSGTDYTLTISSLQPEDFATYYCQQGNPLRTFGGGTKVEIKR	s⁻¹	0.00027
humanized anti-tail monoclonal antibody, heavy chain SEQ ID NO: 6 and light chain SEQ ID NO: 12 (antibody, V domains shown, also called H10215 (11E7.C7 Humanized HC3) + L10215 (11E7.C7 Humanized LC3)) VH: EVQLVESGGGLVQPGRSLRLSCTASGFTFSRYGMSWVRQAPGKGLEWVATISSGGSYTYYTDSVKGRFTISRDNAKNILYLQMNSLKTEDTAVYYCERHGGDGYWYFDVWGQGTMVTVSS VL: DIVMTQSPATLSLSPGERATLSCRASQDISNYLNWYQQKPGQAVRLLIYYTSRLHSGIPARFSGSGSGTDYTLTISSLEPEDFAVYFCQQGNPLRTFGGGTKVEIKR	s⁻¹	0.0021
humanized anti-tail monoclonal antibody, heavy chain SEQ ID NO: 6 and light chain SEQ ID NO: 10 (antibody, V domains shown, also called H10215 (11E7.C7 Humanized HC3) + L10213 (11E7.C7 Humanized LC1)) VH: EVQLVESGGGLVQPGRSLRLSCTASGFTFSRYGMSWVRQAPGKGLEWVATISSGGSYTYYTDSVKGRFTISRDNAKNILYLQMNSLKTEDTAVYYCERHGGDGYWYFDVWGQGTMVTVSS VL: DIQMTQSPSSLSASVGDRVTITCRASQDISNYLNWYQQKPGKAVKLLIYYTSRLHSGVPSRFSGSGSGTDYTLTISSLQPEDFATYFCQQGNPLRTFGGGTKVEIKR	s⁻¹	0.0013
humanized anti-tail monoclonal antibody, heavy chain SEQ ID NO: 4 and light chain SEQ ID NO: 10 (antibody, V domains shown, also called HuTailMab; TP-21958) VH: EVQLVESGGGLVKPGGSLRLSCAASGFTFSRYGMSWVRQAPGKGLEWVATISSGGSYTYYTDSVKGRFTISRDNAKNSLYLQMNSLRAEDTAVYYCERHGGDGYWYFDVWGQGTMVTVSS VL: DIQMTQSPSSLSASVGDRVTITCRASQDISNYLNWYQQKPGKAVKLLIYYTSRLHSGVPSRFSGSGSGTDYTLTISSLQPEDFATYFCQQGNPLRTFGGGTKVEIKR	s⁻¹	0.00033
